Biological target: human CRFR1 (Homo sapiens)
Sequence (P34998 24-415): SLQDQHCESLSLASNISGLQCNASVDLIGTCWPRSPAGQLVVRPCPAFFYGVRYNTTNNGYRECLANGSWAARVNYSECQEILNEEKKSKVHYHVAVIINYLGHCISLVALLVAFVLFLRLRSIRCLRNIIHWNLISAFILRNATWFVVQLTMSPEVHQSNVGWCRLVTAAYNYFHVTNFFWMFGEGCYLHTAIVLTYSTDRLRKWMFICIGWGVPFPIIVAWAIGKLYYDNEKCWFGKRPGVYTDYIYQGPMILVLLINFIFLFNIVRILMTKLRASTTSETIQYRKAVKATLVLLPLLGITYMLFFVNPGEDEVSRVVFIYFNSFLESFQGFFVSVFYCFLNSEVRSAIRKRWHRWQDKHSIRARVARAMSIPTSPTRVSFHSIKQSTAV
Recorded endpoint: IC50 (nM)
One number for each entry, in nM.

Here's what some known entries look like.
{"Compound": "CCOCc1cc(OC)c(-c2csc3c(N(CC4CCC4)C4CCOCC4)c(OC)nn23)c(OC)c1", "Measured on": "human CRFR1 (Homo sapiens)", "IC50 (nM)": 34}
{"Compound": "COc1cc(C#N)cc(OC)c1-c1csc2c(N(CC3CCOCC3)CC3CC3)c(OC)nn12", "Measured on": "human CRFR1 (Homo sapiens)", "IC50 (nM)": 70}
{"Compound": "CCCN(c1c(OC)nn2c(-c3c(OC)cc(COCC)cc3OC)csc12)C1CCCOC1 (stereo not drawn)", "Measured on": "human CRFR1 (Homo sapiens)", "IC50 (nM)": 39}
{"Compound": "COc1cc(C#N)cc(OC)c1-c1csc2c(N(CC3CC3)CC3CCOC3)c(OC)nn12 (stereo not drawn)", "Measured on": "human CRFR1 (Homo sapiens)", "IC50 (nM)": 90}
{"Compound": "COc1cc(OC)c(-c2csc3c(N(CC4CCOCC4)CC4CC4)c(OC)nn23)c(OC)c1", "Measured on": "human CRFR1 (Homo sapiens)", "IC50 (nM)": 29}

# evaluate next
### Prompt Indicate the recorded IC50 value for this compound: `CCOCc1cc(OC)c(-c2csc3c(N(CCC4CC4)C4CCOCC4)c(OC)nn23)c(OC)c1`
### Response 65

Entry source: patent US8431603B2
